- measured.target: Taq DNA polymerase (Thermus aquaticus, UniProt P19821 P19821:1-832)
- Sequence (P19821 whole entry, one chain of several): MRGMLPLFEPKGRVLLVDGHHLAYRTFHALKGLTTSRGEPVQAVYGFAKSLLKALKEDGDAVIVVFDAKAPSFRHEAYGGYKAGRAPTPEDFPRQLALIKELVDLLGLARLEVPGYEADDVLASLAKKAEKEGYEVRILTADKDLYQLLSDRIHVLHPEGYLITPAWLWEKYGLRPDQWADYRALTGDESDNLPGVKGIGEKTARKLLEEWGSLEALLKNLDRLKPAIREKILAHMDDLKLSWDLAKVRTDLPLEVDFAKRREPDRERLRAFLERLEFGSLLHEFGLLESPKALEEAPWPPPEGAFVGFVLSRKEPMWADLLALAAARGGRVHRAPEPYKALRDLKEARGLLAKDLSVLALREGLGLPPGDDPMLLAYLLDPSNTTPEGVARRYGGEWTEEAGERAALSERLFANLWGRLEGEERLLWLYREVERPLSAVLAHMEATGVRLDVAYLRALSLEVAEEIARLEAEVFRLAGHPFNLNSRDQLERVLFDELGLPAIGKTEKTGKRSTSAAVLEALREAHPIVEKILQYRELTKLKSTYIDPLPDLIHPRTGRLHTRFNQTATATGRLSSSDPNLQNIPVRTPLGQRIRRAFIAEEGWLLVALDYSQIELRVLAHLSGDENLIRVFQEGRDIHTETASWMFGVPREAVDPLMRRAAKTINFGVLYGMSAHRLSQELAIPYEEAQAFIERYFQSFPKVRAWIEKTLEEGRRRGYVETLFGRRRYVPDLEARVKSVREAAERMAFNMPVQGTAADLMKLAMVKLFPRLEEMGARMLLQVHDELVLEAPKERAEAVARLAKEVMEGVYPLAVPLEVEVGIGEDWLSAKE
- protocol.details: FP filter; Tris buffer 55C; 3.8 pM at 40C; Tricine 5.6 (40C), 18 (55C) pM; IT50 56C
- study.conditions: tags: rTaq, 94 kDa, Roche Molecular Systems; label: end-labeled
reported.property: pKd
Numbers only, as −log10 of the molar value.

// pKd lookup, binder = ligand 22 (TQH22) / TZ3 (ssDNA) DNA: TTCTCGGTTGGTCTCTGGCGGAGCATACACGACGTCATTCTAGCGTTTTGACGTCTTGTGTATGATTCGCTTTTCCC , result: 10.85
